Exercise: state measured Kd for each of the compounds provided.
MEASUREMENT_TARGET: UniProt:K9N7C7
Sequence (K9N7C7 1482-1803 limits assumed): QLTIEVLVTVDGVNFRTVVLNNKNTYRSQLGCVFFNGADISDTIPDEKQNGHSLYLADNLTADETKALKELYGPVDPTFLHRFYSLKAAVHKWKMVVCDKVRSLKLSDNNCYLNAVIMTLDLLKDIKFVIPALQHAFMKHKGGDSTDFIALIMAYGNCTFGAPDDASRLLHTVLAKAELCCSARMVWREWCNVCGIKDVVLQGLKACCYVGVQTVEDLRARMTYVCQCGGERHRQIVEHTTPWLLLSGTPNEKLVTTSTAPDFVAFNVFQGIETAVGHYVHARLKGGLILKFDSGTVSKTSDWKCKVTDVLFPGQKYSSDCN
EXPERIMENT: biochemical
Format: binding

See these solved cases before continuing.
{"columns": ["COMPOUND", "MEASUREMENT_TARGET", "Kd"],
 "data": [
  ["COc1cc(CNC(=O)C2CCN(C(C)c3ccc(OC)c4ccccc34)CC2)ccn1 (stereo not drawn)", "UniProt:K9N7C7", "> 20 µM"],
  ["C[C@H](c1cccc2ccccc12)N1CCC(C(=O)NCc2cccc(F)c2)CC1", "UniProt:K9N7C7", "> 20 µM"]
]}

Alright, here's another compound for you.
Prompt: Quick check: Kd on UniProt:K9N7C7, item `COc1cc(CNC(=O)C2CCN([C@H](C)c3cccc4ccccc34)CC2)ccn1` ?
Completion: > 20 µM
